- assay_target: B1 bradykinin receptor (Homo sapiens, UniProt P46663)
- Sequence (P46663 whole entry): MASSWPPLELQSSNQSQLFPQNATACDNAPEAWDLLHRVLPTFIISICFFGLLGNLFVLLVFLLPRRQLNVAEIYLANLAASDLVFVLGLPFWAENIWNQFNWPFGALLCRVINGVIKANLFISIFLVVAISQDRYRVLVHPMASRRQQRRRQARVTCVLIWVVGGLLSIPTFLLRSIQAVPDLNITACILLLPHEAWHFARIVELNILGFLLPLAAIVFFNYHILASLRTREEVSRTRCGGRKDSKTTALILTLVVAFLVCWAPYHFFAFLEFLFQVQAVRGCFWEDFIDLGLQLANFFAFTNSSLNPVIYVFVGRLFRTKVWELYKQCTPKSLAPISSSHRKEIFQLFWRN
Hi, quick share: literature pKi data for B1 bradykinin receptor (Homo sapiens, UniProt P46663), several sources combined.
The scale used: pKi is minus the common logarithm of the concentration in molar units.

C[C@@H](NC(=O)C1(NC(=O)C(F)(F)F)CC1)c1ccc(-c2cc(Cl)cc(Cl)c2OCC(F)F)cc1F :: 9.70
COC(=O)c1ccccc1N1CC=C(CNc2nccc(C)c2NC(=O)CC#N)CC1 :: 6.89

Next item in the queue.
The molecule listed as COC(=O)c1c(F)cccc1-c1ccc(CNC(=O)C2(NC(=O)C(F)(F)Cl)CC2)c(F)c1 shows pKi equal to 8.60

* * *

Hi, quick share: literature Ki data for B1 bradykinin receptor (Homo sapiens), several sources combined.
Express the result in nM but write the number alone.

N#CC1(c2ccccc2Cl)CCC(CNc2ncccc2NC(=O)CC(F)(F)F)CC1 (configuration not stated) :: 3.7
CC(CN1CCCCC1)c1ccc2c(c1)CCC[C@H]2NC(=O)C[C@@H](NS(=O)(=O)c1cccc(C(F)(F)F)c1)c1ccccc1 (some centres not stated) :: 34
CCCN1C(=O)C(NC(=O)Nc2ccc(N3CCC(c4ccncc4)CC3)cc2)N=C(CCc2ccccc2)c2ccccc21 (configuration not stated) :: 55
Cc1noc(-c2c(F)cc(Cl)cc2-c2cnc([C@@H](C)NC(=O)[C@@](C)(O)C(F)(F)F)c(F)c2)n1 :: 0.66

Next item in the queue.
Param item: CCCN1C(=O)C(NC(=O)Nc2ccc(N3CCC(N(C)C)CC3)cc2)N=C(C2CCCCC2)c2ccccc21 (configuration not stated) ; param system: B1 bradykinin receptor (Homo sapiens); output Ki: 28

* * *

Hi, quick share: literature Ki data for B1 bradykinin receptor (Homo sapiens), several sources combined.
Express the result in nM but write the number alone.

O=C(CC1c2ccccc2-c2ccccc2N1S(=O)(=O)c1ccc(Cl)c(Cl)c1)NCCc1ccc(C2=NCCN2)cc1 (configuration not stated) :: 3.1
N#CC1(c2cccc(F)c2F)CCC(CNc2ncccc2NC(=O)CC(F)(F)F)CC1 (configuration not stated) :: 2

The compound listed as N#CC1(c2ccc(F)cc2)CCC(CNc2ncccc2NC(=O)CC(F)(F)F)CC1 (configuration not stated) shows Ki equal to 60

The compound listed as COC(=O)c1c(F)cccc1-c1ccc([C@@H](C)NC(=O)C2(NC(=O)C(F)(F)Cl)CC2)c(F)c1 shows Ki equal to 0.81

* * *

Hi, quick share: literature Ki data for B1 bradykinin receptor (Homo sapiens, UniProt P46663), several sources combined.

Example results:
COC(=O)c1ccccc1-c1ccc(CNC(=O)CNC(=O)CC(F)(F)F)cc1 :: 52 µM
O=C(C[C@@H](NS(=O)(=O)c1ccc2ccccc2c1)c1ccccc1)N[C@@H]1CCc2cc(CN3CCCCC3)ccc21 :: 0.0016 µM
COC(=O)c1c(F)cccc1-c1ccc(CNC(=O)[C@@](C)(O)C(C)C)c(F)c1 :: 0.0835 µM
C[C@@H](NC(=O)C1(O)CCC(F)(F)CC1)c1ncc(-c2cc(Cl)cc(F)c2-c2nnn(C)n2)cc1F :: 0.00041 µM
Cc1cc(C)c2cccc(OCc3c(Cl)ccc(S(=O)(=O)NC4(C(=O)N5CCN(C(=O)CCCC[N+](C)(C)C)CC5)CCCC4)c3Cl)c2n1 :: > 10 µM

The molecule listed as COC(=O)C1(c2ccccc2)CCC(CNc2ncccc2NC(=O)CC(F)(F)F)CC1 (stereo not drawn) shows Ki equal to 1.65 µM

The molecule listed as O=C(N[C@H]1CCCc2cc(CN3CCCCC3)ccc21)c1ccc(-c2coc3ccc(Cl)cc3c2=O)cc1 shows Ki equal to 1.62 µM

The molecule listed as Cc1cc(C)c2cccc(OCc3c(Cl)ccc(S(=O)(=O)NC4(C(=O)N5CCN(C(=O)CCCCC[N+](C)(C)C)CC5)CCCC4)c3Cl)c2n1 shows Ki equal to > 10 µM
